assay: Pharmacokinetics in Sprague Dawley rats, single subcutaneous or intravenous dose (incl. 10, 30, 100 nmol/kg dose response); type: in vivo; details: male, Sprague Dawley, rat, plasma, sc, 183 nmol/kg, single subcutaneous dose 183 nmol/kg, mean, read-out: Tmax
*1 amine or outer side, *2 acyl side, *3 side chain or, on linkers, in order; H or OH if unused. Side-chain parts run from the residue outwards. [ ]: non-standard residue; d: D form. The star is where a group is joined. C20 diacid = O=C(O)CCCCCCCCCCCCCCCCCCC(=O)*; γGlu = O=C(O)[C@H](CCC(=O)[*:2])N[*:1]; εLys = N[C@@H](CCCCN[*:1])C(=O)[*:2]; pGlu = O=C1CC[C@@H](C(=O)O)N1; αMeL = CC(C)C[C@](C)(N)C(=O)O; AEEA = NCCOCCOCC(=O)O; Aib = CC(C)(N)C(=O)O
Recorded Metric: Tmax

Consider the substance shown here: [pGlu]GSPSGIVTS[αMeL]DVPT[Aib][αMeL]LQKILEQERAEKARQQAK([γGlu-AEEA-εLys-C20 diacid])EAAEILAQV-NH2 [SEQ ID NO: 22] What is its recorded Tmax?
32 h
